Provide the recorded pIC50 for the entries that follow.
# target: recombinant full-length human prolyl endopeptidase (PREP) (Homo sapiens)
# Construct: To recombinant full-length human prolyl endopeptidase (PREP, R&D-Systems, 4308-SE)
# Sequence (P48147 whole entry): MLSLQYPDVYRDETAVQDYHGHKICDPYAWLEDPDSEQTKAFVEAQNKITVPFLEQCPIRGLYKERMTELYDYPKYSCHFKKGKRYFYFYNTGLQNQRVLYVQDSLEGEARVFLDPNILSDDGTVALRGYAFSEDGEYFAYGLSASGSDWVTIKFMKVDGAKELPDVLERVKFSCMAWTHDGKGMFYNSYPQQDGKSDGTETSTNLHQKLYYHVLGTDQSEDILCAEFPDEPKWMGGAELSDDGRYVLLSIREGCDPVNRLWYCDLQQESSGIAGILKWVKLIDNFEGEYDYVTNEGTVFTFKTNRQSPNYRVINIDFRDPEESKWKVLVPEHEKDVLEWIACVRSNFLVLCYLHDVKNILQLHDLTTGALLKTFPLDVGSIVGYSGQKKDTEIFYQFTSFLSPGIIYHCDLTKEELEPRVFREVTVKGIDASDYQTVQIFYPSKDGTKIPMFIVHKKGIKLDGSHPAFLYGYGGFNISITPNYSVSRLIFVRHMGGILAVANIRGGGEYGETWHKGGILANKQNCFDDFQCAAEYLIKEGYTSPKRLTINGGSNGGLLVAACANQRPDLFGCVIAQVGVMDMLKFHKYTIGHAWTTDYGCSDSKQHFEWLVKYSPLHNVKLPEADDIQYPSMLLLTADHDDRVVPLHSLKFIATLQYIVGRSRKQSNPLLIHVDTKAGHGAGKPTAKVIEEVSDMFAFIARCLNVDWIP
# test.details: Biochemical human prolyl endopeptidase (PREP) assay with fluorescently labelled substrate
# assay.context: substrate Z-Gly-Pro-AMC 50 μM, 32° C., 60 min; some as mean values from multiple independent determinations
# Description: B-1 Biochemical Human Prolyl Endopeptidase (PREP) Assay for Identification of Inhibitors of PREP Activity Using a Fluorescently Labelled Substrate Principle of the Assay: The enzymatic conversion of the fluorescent peptide substrate was observed on the basis of the measurement of the fluorescence intensity. The enzyme activity was determined by the ascertaining of the initial slope in the increase in fluorescence. […]
Scale note: pIC50 = -log10(concentration in M).

So the reported pIC50 for O=C([C@@H]1CCCc2nn(Cc3cc(C(F)(F)F)c(Cl)cn3)c(=O)n21)N1C[C@@H](F)[C@@H](F)C1 [Example 372] , on recombinant full-length human prolyl endopeptidase (PREP) (Homo sapiens), turned out to be 8.89

So the reported pIC50 for CC1CCC(C(=O)N2C[C@@H](F)[C@@H](F)C2)n2c1nn(Cc1ccnc(C(F)(F)F)c1F)c2=O (mixture of isomers) [Example 322] , on recombinant full-length human prolyl endopeptidase (PREP) (Homo sapiens), turned out to be 9.03

So the reported pIC50 for O=C(C1CCCc2nn(Cc3ccc(C(F)(F)F)cc3)c(=O)n21)N1CCCC1 (racemic) [Example 1] , on recombinant full-length human prolyl endopeptidase (PREP) (Homo sapiens), turned out to be 8.76
